These entries and their values trace back to the NIST ThermoML archive (doi:10.1021/acs.jced.8b00583).

Reported mass density values follow for various compounds
cond: 323.15 K; 100 kPa; Liquid; Vibrating tube method
// note: answer is a bare numeric in kg/m3

Query: Report mass density for CCCC[NH3+].O=C[O-] [butylammonium formate] please.
Reply: 958.02

Query: And what about the compound CCCC(=O)[O-].CCCC[NH3+] [n-butylammonium butanoate] ?
Reply: 890.57

Query: And what about the compound CC(=O)O.CCCCN [butylammonium acetate] ?
Reply: 940.83

Query: And what about the compound CCC(=O)[O-].CCCC[NH3+] [butylammonium propanoate] ?
Reply: 915.69

---

cond: 318.15 K; 100 kPa; Liquid; Capillary tube (Ostwald / Ubbelohde) method
observation.type: viscosity (mPa·s)
// note: answer is a bare numeric in mPa·s

Guide cases for viscosity, answers given:
- molecule: "CCCC[NH3+].O=C[O-] [butylammonium formate]"
  observed.value: 45.61
- molecule: "CCC(=O)[O-].CCCC[NH3+] [butylammonium propanoate]"
  observed.value: 211.76
- molecule: "CC(=O)O.CCCCN [butylammonium acetate]"
  observed.value: 163.91

Let us examine a further case.
Query: Report viscosity for CCCC(=O)[O-].CCCC[NH3+] [n-butylammonium butanoate] please.
Reply: 262.05
